# Test system: U-251
# method.description: NCI tumour cell line growth inhibition, 48 h
The source made the active and inactive calls. Rule as the data show it: active = GI50 up to about 1.1 µM and inactive = higher.
One label from this list, please: active, inactive

compound	label
Cc1coc2c1CC1(C)C(CCC(O)C1C)C2 (stereo not given)	inactive
CC(C)C(=O)Nc1nc2[nH]cnc2c(=O)[nH]1	inactive
Nc1nc2[nH]cnc2c(=S)[nH]1 [THIOGUANINE]	inactive
N=C(NC(=S)N1CCCCC1)N1CCCCC1	inactive
CC(=O)OC1CCC2(C)C(CCC3C2CC(=O)C2(C)C3CC(N3CC3)C2C(C)=O)C1 (stereo not given)	inactive
COC1C(CO)OC(n2c3c(Cl)cccc3c3c4c(c5c6cccc(Cl)c6[nH]c5c32)C(=O)NC4=O)C(O)C1O (stereo not given)	active
Cc1nn(C(=O)c2ccccc2O)c2c1C(c1ccc3ccccc3c1O)SC(=N)N2 (stereo not given)	inactive
C/C(=C/CC[C@](C)(OC1OC(CO)C(O)C(O)C1O)[C@H]1CC[C@]2(C)[C@@H]1CC[C@@H]1[C@@]3(C)CC[C@H](O)C(C)(C)[C@@H]3C[C@H](O)[C@]12CO)CO (stereo not given in full)	inactive

Shifting focus to the compound that follows.
# fetch the recorded call for CCOC(=O)C(=O)Nc1ccc(C)c(C)c1 here
inactive

* * *

# Test system: SK-MEL-28
# method.description: NCI tumour cell line growth inhibition, 48 h
Activity calls are given as the source filed them. Rule as the data show it: active = GI50 up to about 1.1 µM and inactive = higher.
The following compounds are shown together with reported GI50 values.

Reference set, count: 5
compound	GI50
CCOc1ccc(N/C(Cl)=C(Cl)\C(=C(\Nc2ccc(OCC)cc2)n2nnc3ccccc32)[N+](=O)[O-])cc1	7.83 µM (inactive)
O=C1OC(c2ccc([N+](=O)[O-])cc2)=N/C1=C\c1ccc(O)cc1	> 100 µM (inactive)
c1ccc2c(c1)nc1n2CCNC1	> 100 µM (inactive)
c1ccc([B-]23Oc4ccccc4[NH+]2c2ccccc2O3)cc1 (stereo unspecified)	> 100 µM (inactive)
CC(C)N(C(=O)c1ccc(NCc2cc(O)ccc2O)cc1)C(C)C	16.9 µM (inactive)

Now look at this one.
Test system SK-MEL-28; read-out GI50; what value for COc1cc(C23OCC(Cc4cc5c(cc42)OCO5)C3CO)cc(OC)c1OC (stereo unspecified) ?
> 100 µM (inactive)

* * *

# Tested on: UACC-257
# method.description: NCI tumour cell line growth inhibition, 48 h
Activity calls are given as the source filed them. Rule as the data show it: active = GI50 up to about 1.1 µM and inactive = higher.
One label from this list, please: active, inactive

molecule	label
Cc1ccccc1NC(=O)C1C(=O)N(c2ccccc2C)C(=O)/C1=N\N (stereo not drawn)	inactive
O=C(CBr)N1CCC2(CC1)SSC1(CCN(C(=O)CBr)CC1)S2	inactive
OCC1CCCC1O (stereo not drawn)	inactive
O=C(Nc1ccc(Nc2ccc(NC(=O)c3ccccc3)c3c2C(=O)c2ccccc2C3=O)c2c1C(=O)c1ccccc1C2=O)c1ccccc1	inactive

# fetch the recorded call for CC(Sc1ccccc1)C(CO)(CO)[N+](=O)[O-] (stereo not drawn) here
inactive

# fetch the recorded call for Cc1occc1C(=S)Nc1ccc(Cl)c(/C=N/OC(C)(C)C)c1 here
inactive

# fetch the recorded call for O=C1OC(c2ccc([N+](=O)[O-])cc2)=N/C1=C\c1ccc(O)cc1 here
inactive

# fetch the recorded call for O=C1O/C(=C(/Br)c2ccc(Cl)c(Cl)c2)c2ccccc21 here
inactive

# fetch the recorded call for O=c1c2cc(Br)ccc2ncn1COCc1ccccc1 here
inactive

# fetch the recorded call for COc1cc2c(cc1OC)C(C(=O)O)C(c1ccccc1)N(C)C2=O (stereo not drawn) here
inactive
